# assay summary: Toxicity against brine shrimp
# Format: organism-based
# experimental conditions: artemia, in vivo
metric: LC50

What LC50 value was documented for this compound, CC(=O)OC[C@]12[C@H](OC(C)=O)[C@H](OC(C)=O)C3C(OC(C)=O)[C@@]14O[C@@]3(C)COC(=O)c1cccnc1[C@@H](C)[C@H](C)C(=O)OC([C@H](OC(=O)c1ccc(=O)n(C)c1)[C@@H]2OC(=O)c1ccccc1)[C@]4(C)O (stereo partly specified) ?
212 µg/mL
